experiment: Binding affinity to chymotrypsin (unknown origin); settings: Homo sapiens
Exercise: state measured log(1/Km) for each of the compounds provided.

Return reported log(1/Km); argument: CC(=O)N[C@@H](Cc1ccccc1)C(=O)O[C@@H](C)c1ccccc1
4.22

Same again, this time with O=C(CNC(=O)c1ccccc1)Oc1ccc([N+](=O)[O-])cc1
4.06

Same again, this time with CCOC(=O)[C@@H](NC(C)=O)C(C)C
0.96

Same again, this time with COC(=O)[C@@H](C)NC(=O)c1ccccc1
2.48

Same again, this time with CCCC[C@H](NC(=O)OCc1ccccc1)C(=O)Oc1ccc([N+](=O)[O-])cc1
5.24

Same again, this time with CC(=O)N[C@H](C(=O)Oc1ccc([N+](=O)[O-])cc1)C(C)C
3.31

Same again, this time with COC(=O)[C@H](C)NC(=O)c1ccccc1
2.01

Same again, this time with O=C(CNC(=O)OCc1ccccc1)Oc1ccc([N+](=O)[O-])cc1
5.31

Same again, this time with COC(=O)[C@H](Cc1ccccc1)NC(C)=O
2.9

Same again, this time with CC(C)COC(=O)CNC(=O)c1ccccc1
2.62

Same again, this time with CC[C@@H](C)OC(=O)[C@H](Cc1ccccc1)NC(C)=O
2.76

Same again, this time with CC(=O)N[C@H](C(=O)OCCCl)C(C)C
1.72
